pIC50: −log10 of the molar value.
Below, pIC50 values reported for Cytochrome P450 3A4 (Homo sapiens) across several publications.

Previously resolved entries follow.
INSERT INTO assay_data (entry_smiles, measured_result) VALUES
  ('CC[C@@H](C#N)NC(=O)c1ccc(-c2nc(Nc3cnn(CCO)c3)ncc2Cl)cc1', '< 4.30'),
  ('CO[C@H]1[C@@H](CF)OC(N)=N[C@]1(C)c1cc(NC(=O)c2ncc(Cl)cc2Cl)ccc1F', '≤ 4.70');

# ---- query molecule ----
Requested field: pIC50. Item: NC1=N[C@](CF)(c2cc(NC(=O)c3cnc(C(F)F)cn3)ccc2F)[C@H]2CC(F)(F)C[C@H]2O1 < 5.00

###

IC50 values for UniProt:P08684 compiled from several publications are listed below.

INSERT INTO assay_data (molecule, target_entity, measured_result) VALUES
  ('C[C@H]1SC(N)=N[C@](C)(c2cc(NC(=O)c3ccc(F)cn3)ccc2F)[C@H]1F', 'UniProt:P08684', '≥ 20 µM'),
  ('CC(C)Oc1ccc(S(=O)(=O)N2C[C@H](n3nc(CC(=O)O)c4ccc(F)cc43)C[C@H]2C#N)cc1', 'UniProt:P08684', '> 20 µM');

Proceeding to the next molecule to report its IC50.
Value wanted: IC50 (UniProt:P08684) of entry Cc1cc(Nc2ncc(Cl)c(Nc3cn(C)nc3S(=O)(=O)C(C)C)n2)c(OC2CC2)cc1C1CCN(C2COC2)CC1 > 10 µM

###

Collected IC50 for Cytochrome P450 3A4 (Homo sapiens) across several studies; compounds listed below.

INSERT INTO measurements (entry_smiles, target_entity, measured_result) VALUES
  ('COc1ccccc1N1CCN(CCCCNC(=O)c2ccc(-c3ccccc3)cc2)CC1', 'Cytochrome P450 3A4 (Homo sapiens)', '> 20 µM');

Any idea what IC50 was measured for NC1=N[C@](CF)(c2cc(NC(=O)c3ccc(OCF)cn3)ccc2F)C[C@@H](C(F)(F)F)O1 ? > 50 µM

Which value of IC50 has been reported for COc1ccc(Oc2cc(NCC3COC3)c3ncc(-c4ccc(C(=O)NC5CC5)c(C)c4)n3n2)cc1F in the records? ≥ 5 µM

Fill in the blank: the reported IC50 of O=C(Nc1ccc(Br)cc1)c1cc(F)cnc1NCc1ccnc2[nH]ccc12 is ____. > 20 µM

###

pIC50: −log10 of the molar value.
Listed below are compounds with pIC50 for Cytochrome P450 3A4 (Homo sapiens), each taken from published literature.

Return pIC50 measured with Cytochrome P450 3A4 (Homo sapiens) given this compound: N#Cc1ccc(Oc2ccc(C(F)(F)C(O)(Cn3cnnn3)c3ccc(F)cc3F)nc2)cc1 (stereo not drawn) 4.80

Identify the measured pIC50 of CO[C@H]1[C@@H](CF)OC(N)=N[C@]1(C)c1cc(NC(=O)c2cnc(OCF)cn2)ccc1Cl for Cytochrome P450 3A4 (Homo sapiens). ≤ 4.70

Return pIC50 measured with Cytochrome P450 3A4 (Homo sapiens) given this compound: C[C@@H](c1ccccc1-c1ccc(F)cc1)n1cncc1C(=O)N1CCC(N2CCc3nccnc3C2)CC1 8.27

###

Ok so here's the combined literature set: IC50 for Cytochrome P450 3A4 (Homo sapiens).

Known IC50 results, listed for orientation:
INSERT INTO results (molecule, target_entity, quantity_kind, measured_result) VALUES
  ('Cc1ccc(-c2ccc([C@H](C)N3CC[C@](CC(C)(C)O)(c4ccc(F)cc4)OC3=O)cc2)nn1', 'Cytochrome P450 3A4 (Homo sapiens)', 'IC50', '> 50 µM'),
  ('CC1(C)CC(=O)Nc2cc(NC(=O)c3cccnc3NCc3c[nH]c4ncccc34)ccc21', 'Cytochrome P450 3A4 (Homo sapiens)', 'IC50', '> 20 µM'),
  ('COCCN(C)C(=O)N[C@@H](CCN1CCOCC1)C(=O)N[C@H](CC[C@H](Cc1ccccc1)NC(=O)OCc1cncs1)Cc1ccccc1', 'Cytochrome P450 3A4 (Homo sapiens)', 'IC50', '0.56 µM'),
  ('C[C@@]1(c2cc(NC(=O)c3ccc(Cl)cn3)ccc2F)C[C@@H](C(F)(F)F)OC(N)=N1', 'Cytochrome P450 3A4 (Homo sapiens)', 'IC50', '> 50 µM'),
  ('COc1cc(N2CCc3nc(NC(=O)NCc4cc(=O)[nH]o4)sc3C2)nc(OC)n1', 'Cytochrome P450 3A4 (Homo sapiens)', 'IC50', '> 20 µM');

Observed IC50 on Cytochrome P450 3A4 (Homo sapiens) for C[C@@H](c1ccc(-c2ccc(C(=O)NC(C)(C)C)nn2)cc1)N1CC[C@](CC(C)(C)C#N)(c2ccccc2)OC1=O , please. 48.9 µM

Return IC50 measured with Cytochrome P450 3A4 (Homo sapiens) given this molecule: CCn1nc2ncc(N3CC4(CN(C(=O)C5CCOCC5)C4)C3)cc2c1N(C)c1nc(-c2ccc(F)cc2)c(C#N)s1 > 50 µM

Request body: readout IC50, system Cytochrome P450 3A4 (Homo sapiens), query C[C@@H](c1ccccc1-c1ccccc1)n1cncc1C(=O)N1CCC2NCCO[C@@H]2C1 (stereo partly drawn) . Return the value. 0.0068 µM

Give Cytochrome P450 3A4 (Homo sapiens) IC50 for O=C(Nc1ccc(C(F)(F)C(F)(F)F)c(OC[C@@H]2CCCN2)c1)c1cccnc1NCc1ccnc2[nH]ccc12 > 20 µM

###

pIC50: −log10 of the molar value.
// cross-source set; read-out = pIC50; system = Cytochrome P450 3A4 (Homo sapiens)
QUANTITY_KIND: pIC50

INSERT INTO measurements (compound, target_entity, quantity_kind, measured_result) VALUES
  ('Cc1ccc(C2(n3cncc3CN3CCN(S(=O)(=O)c4cnc(N5CCN(C)CC5)s4)CC3)CC2)nc1', 'Cytochrome P450 3A4 (Homo sapiens)', 'pIC50', 8.36);

[1] C[C@@H](c1ccc(-c2nc(C(=O)NC3CC3)cs2)cc1)N1CC[C@](CC(C)(C)O)(c2ccccc2)OC1=O
[2] C[C@@H](c1ccccc1-c1ccc(F)cc1)n1cncc1C(=O)N1CCC2NC(=O)CO[C@@H]2C1 (mixture of isomers)
Just curious, which one has the larger pIC50 reading, 1 or 2 ? Identify your pick by its label. 2
(2: 8.28, 1: 4.57)

###

Field: IC50. System: Cytochrome P450 3A4 (Homo sapiens, UniProt P08684). Provenance: assorted publications.

Example entries and their recorded answers appear below.
INSERT INTO assay_data (entry_smiles, target_entity, quantity_kind, measured_result) VALUES
  ('COc1cc2c(NC3CCOCC3)nc(N3CCOCC3)nc2cc1OCCCN1CCCC1', 'Cytochrome P450 3A4 (Homo sapiens, UniProt P08684)', 'IC50', '> 100 µM'),
  ('COc1cccc(-c2ccc3nc(NC(=O)NCCC(=O)O)cn3n2)c1', 'Cytochrome P450 3A4 (Homo sapiens, UniProt P08684)', 'IC50', '> 20 µM'),
  ('Cc1ccc(Cn2c(=O)n(CC(C)(C)C(=O)O)c(=O)[nH]/c2=N\c2ccc(Oc3ccc(F)cn3)cc2)cc1', 'Cytochrome P450 3A4 (Homo sapiens, UniProt P08684)', 'IC50', '> 20 µM'),
  ('[2H]c1c(C)c(Oc2cc(C(C([2H])([2H])[2H])C([2H])([2H])[2H])c(=O)[nH]n2)c(Cl)c([2H])c1-n1nc(C#N)c(=O)[nH]c1=O', 'Cytochrome P450 3A4 (Homo sapiens, UniProt P08684)', 'IC50', '> 50 µM');

Returns the measured IC50 for the input compound. Input: CNC(=O)c1cc(COc2nnc(Nc3ccc(Cl)cc3)c3ccccc23)ccn1 > 20 µM

###

Record set: IC50 | Cytochrome P450 3A4 (Homo sapiens, UniProt P08684) | literature, multiple sources.

Answered examples (5):
INSERT INTO assay_data (molecule, target_entity, quantity_kind, measured_result) VALUES
  ('COc1cc2c(NC3CCN(C(C)C)CC3)nc(N3CCC3)nc2cc1OCCCN1CCCC1', 'Cytochrome P450 3A4 (Homo sapiens, UniProt P08684)', 'IC50', '> 100 µM'),
  ('C[C@]1(c2nc(NC(=O)c3ccc(Cl)cn3)ccc2F)N=C(N)S[C@H](CF)[C@@H]1F', 'Cytochrome P450 3A4 (Homo sapiens, UniProt P08684)', 'IC50', '≥ 20 µM'),
  ('CCN(CC)CCCNC(=O)c1cnc(N)c2c(-c3ccc(NC(=O)Nc4cccc(F)c4)cc3)csc12', 'Cytochrome P450 3A4 (Homo sapiens, UniProt P08684)', 'IC50', '> 20 µM'),
  ('CC1(C)CCCNc2cc(NC(=O)c3cccnc3NCc3ccnc4[nH]ccc34)ccc21', 'Cytochrome P450 3A4 (Homo sapiens, UniProt P08684)', 'IC50', '> 20 µM'),
  ('C[C@H](C(=O)N[C@H](CO)c1cccc(F)c1)N1Cc2ccc(-c3nc(NC4CCOCC4)ncc3F)c(F)c2C1=O', 'Cytochrome P450 3A4 (Homo sapiens, UniProt P08684)', 'IC50', '> 10 µM');

Item: N#Cc1ccc(C(=O)Nc2ccc(F)c(C34COCC3COC(N)=N4)c2)nc1 (racemic) Test system: Cytochrome P450 3A4 (Homo sapiens, UniProt P08684) Read-out: IC50 Value: ? > 20 µM

API: value(readout=IC50, system=Cytochrome P450 3A4 (Homo sapiens, UniProt P08684)) for record COc1ccnc(Oc2ccc(/N=c3\[nH]c(=O)n(C[C@H](C)C(=O)O)c(=O)n3Cc3ccc(Cl)cc3)cc2)c1 > 20 µM

Requested read-out IC50, target or system Cytochrome P450 3A4 (Homo sapiens, UniProt P08684), entry Cl.Cn1nc(-c2ccc(OC/C(=C/F)CN)cc2)nc1C(F)F > 50 µM
